Tested on: breast cancer cell line MCF-7
Assay: IC50 values on breast cancer cell line MCF-7
Format: cell-based
Details: Homo sapiens, MCF7, 72 h, read-out: MCF-7(IC50, nM)
Reported IC50 values for a set of compounds
Property measured: IC50

COC(=O)O[C@H]1C(=O)[C@]2(C)[C@@H](OC)C[C@H]3OC[C@@]3(OC(C)=O)[C@H]2[C@H](OC(=O)c2ccccc2)[C@]2(O)C[C@H](OC(=O)[C@H](O)[C@H](CC(C)C)NC(=O)OC(C)(C)C)C(C)=C1C2(C)C [PCMI-28] | 2.9 nM
CO[C@H]1C(=O)[C@]2(C)C=C[C@@H](O)[C@](CO)(OC(C)=O)[C@H]2[C@H](OC(=O)c2ccccc2)[C@]2(O)C[C@H](OC(=O)[C@H](O)[C@@H](NC(=O)OC(C)(C)C)c3ccccc3)C(C)=C1C2(C)C [PCMI-44] | 10.9 nM

====

Tested on: K562 leukemia
Experiment: MTT assay, proliferation inhibition
Type: cell-based
Details: Homo sapiens, read-out: Proliferation inhibition rate
Measured inhibition at 1 µM values are reported for all entries that follow.
Property measured: inhibition at 1 µM

COC(=O)O[C@H]1C[C@H]2OC[C@@]2(OC(C)=O)[C@H]2[C@H](OC(=O)c3ccccc3)[C@]3(O)C[C@H](OC(=O)[C@H](O)[C@H](CC(C)C)NC(=O)OC(C)(C)C)C(C)=C([C@@H](OC)C(=O)[C@]12C)C3(C)C | 92.2%
CCSC(=O)O[C@H]1C(=O)[C@]2(C)[C@@H](OC)C[C@H]3OC[C@@]3(OC(C)=O)[C@H]2[C@H](OC(=O)c2ccccc2)[C@]2(O)C[C@H](OC(=O)[C@H](O)[C@@H](NC(=O)OC(C)(C)C)c3ccccc3)C(C)=C1C2(C)C | 92.6%

====

Assay: In vivo oral bioavailability assay (pharmacokinetics)
Parameters: species or system S.D. rats
Conditions: male, S.D., plasma; rat; intravenous administration 5 mg/kg; read-out: MRT0-∞
Property measured: MRT inf (h)

CO[C@H]1C(=O)[C@]2(C)[C@@H](OC(=O)N(C)C)C[C@H]3OC[C@@]3(OC(C)=O)[C@H]2[C@H](OC(=O)c2ccccc2)[C@]2(O)C[C@H](OC(=O)[C@H](O)[C@@H](NC(=O)OC(C)(C)C)c3ccccc3)C(C)=C1C2(C)C [PCMI-31] | 2.58

====

Test: In vivo oral bioavailability assay (pharmacokinetics)
Parameters: species or system S.D. rats
Settings: male, S.D., plasma; rat; oral administration 60 mg/kg; read-out: MRT0-∞
Property measured: MRT inf (h)

CO[C@H]1C(=O)[C@]2(C)[C@@H](OC(=O)N(C)C)C[C@H]3OC[C@@]3(OC(C)=O)[C@H]2[C@H](OC(=O)c2ccccc2)[C@]2(O)C[C@H](OC(=O)[C@H](O)[C@@H](NC(=O)OC(C)(C)C)c3ccccc3)C(C)=C1C2(C)C | 4.33

====

Test: In vivo oral bioavailability assay (pharmacokinetics)
Set-up: species or system S.D. rats
Conditions: male, S.D., plasma; rat; intravenous administration 5 mg/kg
Property measured: Cmax (ng/mL)

CO[C@H]1C(=O)[C@]2(C)[C@@H](OC(=O)N(C)C)C[C@H]3OC[C@@]3(OC(C)=O)[C@H]2[C@H](OC(=O)c2ccccc2)[C@]2(O)C[C@H](OC(=O)[C@H](O)[C@@H](NC(=O)OC(C)(C)C)c3ccccc3)C(C)=C1C2(C)C [PCMI-31] | 7990

Values compiled from patent US10253007B2.
